# study_system: PARG in HeLa cell line (Homo sapiens (Human))
# Sequence (Q86W56 whole entry): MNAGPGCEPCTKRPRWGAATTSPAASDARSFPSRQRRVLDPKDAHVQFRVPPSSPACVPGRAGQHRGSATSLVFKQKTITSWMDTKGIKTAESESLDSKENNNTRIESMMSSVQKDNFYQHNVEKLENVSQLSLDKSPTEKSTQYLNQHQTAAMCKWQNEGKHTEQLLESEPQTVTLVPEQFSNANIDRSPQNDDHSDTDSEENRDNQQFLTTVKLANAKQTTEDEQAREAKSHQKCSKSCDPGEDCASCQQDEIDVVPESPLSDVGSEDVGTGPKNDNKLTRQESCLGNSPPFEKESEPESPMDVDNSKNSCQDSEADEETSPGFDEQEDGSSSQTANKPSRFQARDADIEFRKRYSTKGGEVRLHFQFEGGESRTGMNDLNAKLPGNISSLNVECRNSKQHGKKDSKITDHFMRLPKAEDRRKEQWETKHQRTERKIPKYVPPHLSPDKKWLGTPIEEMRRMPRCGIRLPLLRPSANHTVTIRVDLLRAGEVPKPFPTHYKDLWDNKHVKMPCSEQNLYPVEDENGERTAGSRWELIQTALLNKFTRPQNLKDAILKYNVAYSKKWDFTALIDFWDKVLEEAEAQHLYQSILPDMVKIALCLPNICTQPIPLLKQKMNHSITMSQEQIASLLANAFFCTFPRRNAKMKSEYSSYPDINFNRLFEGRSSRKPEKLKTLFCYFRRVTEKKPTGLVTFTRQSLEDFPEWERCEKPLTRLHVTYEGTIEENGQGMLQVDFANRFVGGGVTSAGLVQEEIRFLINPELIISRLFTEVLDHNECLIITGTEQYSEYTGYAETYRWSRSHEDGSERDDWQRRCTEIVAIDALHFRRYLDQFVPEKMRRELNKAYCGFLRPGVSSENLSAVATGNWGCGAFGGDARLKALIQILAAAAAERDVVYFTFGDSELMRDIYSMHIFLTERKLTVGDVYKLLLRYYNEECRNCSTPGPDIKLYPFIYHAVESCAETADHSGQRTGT
# experimental_protocol: PARG cell assay (nuclear PAR chains after MMS, immunofluorescence)
# Assay type: cell-based
assay_endpoint: IC50 (µM)
Please state the figure in µM; there is no need to write the unit.

Request: Specify measured IC50 for "Cc1nnc(-n2cc(C(=O)c3ccc(F)cc3)c3ccc(S(=O)(=O)NC4(C)CC4)cc32)s1" .
Response: 0.228

* * *

# study_system: PARG in HeLa cell line (Homo sapiens (Human))
# experimental_protocol: PARG cell assay (nuclear PAR chains after MMS, immunofluorescence)
# Assay type: cell-based
# condition_summary: HeLa cells, MMS 50 μg/mL; read-out: PARG Cell IC50 Geomean
# Method: This method is based on the detection of endogenous levels of poly (ADP) ribose chains present in the nucleus of HeLa cell line using indirect immunofluorescence. MMS stimulation increases PAR chains for up to 25 mins. After that point, PARG is active and breaks down the PAR chains, until by one hour after stimulation no PAR chains are detectable. Inhibition of PARG maintains PAR chains. […]
assay_endpoint: pIC50
Scale: pIC50 equals -log10([C]), with [C] in mol/L.

The following molecules have reported results that may help.
N#CCn1c(=O)n(-c2nnc(C(F)F)s2)c2cc(S(=O)(=O)NC3(CF)CC3)c(F)cc21 [Example 215] : 7.07
Cn1c(=O)n(-c2ncns2)c2cc(S(=O)(=O)NC3(CF)CC3)ccc21 [Example 175] : 6.26
Cc1nnc(-n2c(=O)n(CC3CCCCN3C)c3ccc(S(=O)(=O)NC4(C)CC4)cc32)s1 (stereo not drawn) [Example 143] : 6.46
Cc1ccc(Cn2c(=O)n(-c3nnc(C)s3)c3cc(S(=O)(=O)NC4(C)CC4)ccc32)o1 [Example 103] : 6.66
Cn1c(=O)n(-c2nnc(C(F)F)o2)c2cc(S(=O)(=O)NC3(C)CC3)c(F)cc21 [Example 209] : 6.66

Next molecule, please.
Request: Let me know recorded pIC50 for Cc1nnc(-n2c(=O)n(C)c3cc(F)c(S(=O)(=O)NC4(C)CC4)cc32)o1 [Example 197] , thanks.
Response: 6.27
